Form field: normalized growth (one value per entry).
- method.notes: chemical genetic growth profiling, strain panel (AID 1159580);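 note: tested at 20 µM; growth read once vehicle control cultures reached saturation at 30 °C; 1 = growth at the plate median or of vehicle wells; lower values mean less growth of the strain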
- experimental.parameters: S. cerevisiae deletion strains, growth OD, locus YDR335W, strain msn5, active compounds read low
Among all 5,500 compounds or so, about 2,000 (36%) were called active. About 18% were inconclusive and are not listed. This is one part of the list.
Kindly provide the number alone.

compound	normalized growth
N[C@H](CO)Cc1ccccc1	1.01
C[N+]1(CCCCC[N+]2(C)CCCC2)CCCC1	0.991
CC1=CCc2c(cc3oc(C)cc(=O)c3c2O)OC1	0.987
COC(=O)C1=C(C)NC(C)=C(C(=O)OCCN(C)Cc2ccccc2)C1c1cccc([N+](=O)[O-])c1 (configuration not stated)	0.986

Recorded normalized growth for NCC(=O)CCC(=O)O , please?
0.995

Recorded normalized growth for [N-]=[N+]=CC(=O)OCC(N)C(=O)O (configuration not stated) , please?
1.01

Recorded normalized growth for COC(=O)C1=C(C)NC(C)=C(C(=O)OC)C1c1ccccc1[N+](=O)[O-] , please?
0.969

----------
Form field: normalized growth (one value per entry).
- method.notes: chemical genetic growth profiling, strain panel (AID 1159580)
- experimental.parameters: S. cerevisiae deletion strains, growth OD, locus YKL085W, strain MDH1, active compounds read low
About 2,000 (36%) of roughly 5,500 compounds were called active. Inconclusive results (about 18%) are left out. The list shows a part of the results.
Kindly provide the number alone.

compound	experimental.result
C=CCc1ccccc1OCC(O)CNC(C)C (configuration not stated)	1.01
O=c1c(-c2ccccc2)coc2cc(O)cc(O)c12	0.799
CC1NC(=O)NC1=O (configuration not stated)	1
COc1ccc(-c2coc3cc(OC)cc(O)c3c2=O)cc1	0.982
COc1cc([C@@H]2c3cc4c(cc3[C@H](OC(C)=O)[C@H]3COC(=O)[C@H]23)OCO4)cc(OC)c1OC	1

Recorded normalized growth for COc1cc(O)c2c(=O)c(-c3ccc(O)cc3)coc2c1 , please?
0.948

Recorded normalized growth for CCCCCCCCCCCCCCCC[n+]1ccccc1 , please?
0.0485

----------
- method.notes: chemical genetic growth profiling, strain panel (AID 1159580)
- experimental.parameters: S. cerevisiae deletion strains, growth OD, locus YMR277W, strain FCP1, active compounds read low
Hit rate of the full screen: of about 5,500 compounds, about 2,000 (36%) were called active. Inconclusive results (about 18%) are left out. The list shows a part of the results.
endpoint: normalized growth
Kindly provide the number alone.

Check out these entries, answers already filled in.
test.smiles	normalized growth
O=C(NCc1cccs1)c1csc(Cc2c(Cl)cccc2Cl)n1	0.982
COc1cc(NC(=S)Nc2ccccc2OC(F)(F)F)cc(C(F)(F)F)c1	0.954
CN(C(=O)N(C)c1ccc(Cl)cc1C(=O)c1ccccc1Cl)c1ccc(Cl)cc1C(=O)c1ccccc1Cl	0.825

Recorded normalized growth for Cc1ccc(C(O)(c2ccccc2)c2ccccc2)c2ccccc12 , please?
0.991

Recorded normalized growth for CC(C)(C)c1csc(NC(=O)Nc2ccc(Cl)cc2)n1 , please?
0.974

Recorded normalized growth for CC(C)c1ccc(-c2cc(=O)c3ccccc3o2)cc1 , please?
0.917

Recorded normalized growth for CC(C)(C)c1cc2nc(C(F)(F)F)cc(NNC(=O)c3ccc(Cl)cc3)n2n1 , please?
0.973

Recorded normalized growth for O=C(NNC(=O)c1csc(-c2cccs2)n1)c1ccc(C(F)(F)F)cc1 , please?
0.957

Recorded normalized growth for C#Cc1cccc(N=Cc2cc(Cl)cc(Br)c2O)c1 , please?
0.108

----------
- method.notes: chemical genetic growth profiling, strain panel (AID 1159580)
- experimental.parameters: S. cerevisiae deletion strains, growth OD, locus YOL006C, strain TOP1
In all, about 5,500 compounds went through this assay and about 2,000 (36%) were called active. Inconclusive results (about 18%) are left out. Rule as the data show it: active = normalized growth mostly below about 0.91 (no sharp cut-off); inconclusive = no clear call, values can overlap the other calls; inactive = mostly above about 0.92. The list shows a part of the results.
Respond with a class label; see yes (active), no (inactive)

Some solved entries appear below for comparison.
molecule	assigned.category
COc1ccc(-c2cc(=O)c3c(OC)cccc3o2)cc1	no
O=C1CCCc2c1nc(-c1ccccc1)n2O	no
CC1(C)O[C@@H]2CC3C4C[C@H](F)C5=CC(=O)C=CC5(C)C4C(O)CC3(C)[C@]2(C(=O)CO)O1 (stereo partly drawn)	no
COC(=O)C1=C(Nc2ccc(Cl)cc2)CSC1	yes
O=C(/C=C/c1ccccc1)c1ccc(O)cc1	yes
COc1ccc(-c2cc(=O)c3ccccc3o2)cc1OC	no
O=C(O)c1coc2ccccc2c1=O	no
CC(=O)[C@H]1CCC2C3CC=C4C[C@@H](O)CC[C@]4(C)C3CC[C@@]21C (stereo partly drawn)	no

Write down the call the test reported for this molecule. Item: COC(=O)C1=C(C)NC(C)=C(C(=O)OCCN(C)Cc2ccccc2)C1c1cccc([N+](=O)[O-])c1 (stereo not drawn)
no

Write down the call the test reported for this molecule. Item: CCC1C2CC3C4N(C)c5ccccc5C45CC(C2C5OC(C)=O)N3C1OC(C)=O (stereo not drawn)
no

Write down the call the test reported for this molecule. Item: COc1cc([C@@H]2c3cc4c(cc3[C@H](OC(C)=O)[C@H]3COC(=O)[C@H]23)OCO4)cc(OC)c1OC
no

Write down the call the test reported for this molecule. Item: CC(N)Cc1ccc(O)cc1 (stereo not drawn)
no

Write down the call the test reported for this molecule. Item: CC(=O)Oc1cc(OC(C)=O)c2c(=O)c(-c3ccccc3)coc2c1
no

Write down the call the test reported for this molecule. Item: Cc1coc2ccccc2c1=O
no

----------
- method.notes: chemical genetic growth profiling, strain panel (AID 1159580);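 note: tested at 20 µM; growth read once vehicle control cultures reached saturation at 30 °C; 1 = growth at the plate median or of vehicle wells; lower values mean less growth of the strain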
- experimental.parameters: S. cerevisiae deletion strains, growth OD, locus YMR205C, strain PFK2 (second series), active compounds read low
Screen size: about 5,500 compounds; about 2,000 (36%) were called active. About 18% were inconclusive and are not listed. The list shows a part of the results.
endpoint: normalized growth
Kindly provide the number alone.

Check out these entries, answers already filled in.
molecule	endpoint	experimental.result
O=C(NNC(=O)c1csc(-c2cccs2)n1)c1ccc(C(F)(F)F)cc1	normalized growth	0.666
N#CCCCCOc1ccc2c(=O)cc(-c3ccccc3)oc2c1	normalized growth	0.967
Cc1cc(C(=O)O/N=C(/N)CSc2ncccc2C(F)(F)F)no1	normalized growth	1.02

Recorded normalized growth for N/C(CSc1ccc(Cl)cc1)=N/OC(=O)c1ccc(C(F)(F)F)cc1 , please?
0.836

Recorded normalized growth for CCn1nc(C)cc1-c1nnc(Sc2ncc([N+](=O)[O-])s2)n1C , please?
0.996

Recorded normalized growth for N/C(CSc1ncccc1C(F)(F)F)=N/OC(=O)Nc1cccc(Cl)c1 , please?
0.916

Recorded normalized growth for CC(C)c1ccc(-c2cc(=O)c3ccccc3o2)cc1 , please?
0.846

Recorded normalized growth for O=C(NCc1cccs1)c1csc(Cc2c(Cl)cccc2Cl)n1 , please?
1.01

Recorded normalized growth for CCC(C)Cn1c(Sc2ncc([N+](=O)[O-])s2)n[nH]c1=O (stereo unspecified) , please?
0.844

Recorded normalized growth for CCC(C)COC(=O)/C=C/c1ccc(N=Cc2ccc(OC)cc2)cc1 (stereo unspecified) , please?
0.861

Recorded normalized growth for COc1ccc(C2CC(c3ccccc3)=Nc3ccccc3S2)cc1OC (stereo unspecified) , please?
0.95

----------
- method.notes: chemical genetic growth profiling, strain panel (AID 1159580);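 note: tested at 20 µM; growth read once vehicle control cultures reached saturation at 30 °C; 1 = growth at the plate median or of vehicle wells; lower values mean less growth of the strain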
- experimental.parameters: S. cerevisiae deletion strains, growth OD, locus YEL061C, strain CIN8 (second series)
Hit rate of the full screen: of about 5,500 compounds, about 2,000 (36%) were called active. Not shown: some 18% with an inconclusive outcome. Cut-off read from the data, not from the text of the source: active = normalized growth mostly below about 0.91 (no sharp cut-off); inconclusive = no clear call, values can overlap the other calls; inactive = mostly above about 0.92. The list shows a part of the results.
Respond with a class label; see True for active, False for inactive

Write down the call the test reported for this compound. Item: COc1ccc2cc3[n+](cc2c1OC)CCc1cc2c(cc1-3)OCO2
False

Write down the call the test reported for this compound. Item: CCOC(=O)C1C(C=C(C)C)C1(C)C (configuration not stated)
False

Write down the call the test reported for this compound. Item: S=c1ccss1
False

Write down the call the test reported for this compound. Item: C[n+]1cc2c3c(ccc2c2ccc4cc5c(cc4c21)OCO5)OCO3
True

Write down the call the test reported for this compound. Item: CCN(CC)CCNc1ccc(CO)c2sc3ccccc3c(=O)c12
False

Write down the call the test reported for this compound. Item: COc1c2c(cc3c1OCO3)CC[N+](C)=C2
False

Write down the call the test reported for this compound. Item: CCCCCCCCCCCCCCCC[n+]1ccccc1
True

----------
- method.notes: chemical genetic growth profiling, strain panel (AID 1159580);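 note: tested at 20 µM; growth read once vehicle control cultures reached saturation at 30 °C; 1 = growth at the plate median or of vehicle wells; lower values mean less growth of the strain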
- experimental.parameters: S. cerevisiae deletion strains, growth OD, locus YGL086W, strain mad1
In all, about 5,500 compounds went through this assay and about 2,000 (36%) were called active. Inconclusive results (about 18%) are left out. No stated cut-off is given here; in the data, active means normalized growth mostly below about 0.91 (no sharp cut-off); inconclusive means no clear call, values can overlap the other calls; inactive means mostly above about 0.92. This is one part of the list.
Respond with a class label; see 1 (yes) (active), 0 (no) (inactive)

molecule	assigned.category
COc1cc2c3cc1Oc1cc(ccc1O)C[C@@H]1c4c(cc(OC)c(O)c4Oc4ccc(cc4)C[C@@H]3N(C)CC2)CC[N+]1(C)C	0 (no)
CC1=CCc2c(cc3oc(C)cc(=O)c3c2O)OC1	0 (no)
CC(=O)OC1CC2C(C)(C)CCCC2(C)C2CCC3(C)C(c4ccoc4)OC(=O)C4OC43C12C (centres undefined)	0 (no)
C=CCCCCCCCCCCCC(O)CC(O)CO (centres undefined) (tested in a mixture with another compound)	1 (yes)
COc1cc2cc[n+]3cc4c(OC)c(OC)ccc4cc3c2cc1OC	0 (no)

Write down the call the test reported for this molecule. Item: COc1cccc(-c2cc(=O)c3ccc(OC)cc3o2)c1
0 (no)

Write down the call the test reported for this molecule. Item: CC(=O)O[C@@H]1CC2C(C)(C)CCC(=O)[C@]2(C)C2CC[C@@]3(C)[C@H](c4ccoc4)OC(=O)C4OC43[C@@]21C (some centres undefined)
0 (no)

Write down the call the test reported for this molecule. Item: CC(=O)Oc1c(-c2ccccc2)oc2c(CC=C(C)C)c3c(c(OC(C)=O)c2c1=O)C=CC(C)(C)O3
0 (no)

Write down the call the test reported for this molecule. Item: C[n+]1cc2c3c(ccc2c2ccc4cc5c(cc4c21)OCO5)OCO3
1 (yes)

Write down the call the test reported for this molecule. Item: CC(=O)O[C@H]1C[C@@]2(C)[C@H](c3ccoc3)OC(=O)[C@H]3O[C@]32[C@@]2(C)C1[C@]1(C)C(C[C@H]2OC(C)=O)C(C)(C)[C@H](OC(C)=O)C[C@@H]1OC(C)=O (some centres undefined)
0 (no)

Write down the call the test reported for this molecule. Item: CC(=O)O[C@H]1C[C@H](O[C@H]2[C@@H](O)C[C@H](O[C@H]3[C@@H](O)C[C@H](O[C@H]4CC[C@@]5(C)C(CCC6C5C[C@@H](O)[C@]5(C)[C@@H](C7=CC(=O)OC7)CC[C@]65O)C4)O[C@@H]3C)O[C@@H]2C)O[C@H](C)[C@H]1O[C@@H]1O[C@H](CO)[C@@H](O)[C@H](O)[C@H]1O (some centres undefined)
0 (no)

Write down the call the test reported for this molecule. Item: CCN(CC)CCNc1ccc(CO)c2sc3ccccc3c(=O)c12
0 (no)

Write down the call the test reported for this molecule. Item: COc1ccc(-c2cc(=O)c3ccccc3o2)cc1
1 (yes)

Write down the call the test reported for this molecule. Item: COc1ccc2c(=O)cc(-c3ccccc3OC)oc2c1
1 (yes)

Write down the call the test reported for this molecule. Item: COc1ccc(-c2cc(=O)c3c(OC)cccc3o2)cc1
0 (no)

Write down the call the test reported for this molecule. Item: Cc1coc2ccccc2c1=O
0 (no)

Write down the call the test reported for this molecule. Item: COc1cccc2c1cc([N+](=O)[O-])c1c(C(=O)O)cc3c(c12)OCO3
0 (no)

Write down the call the test reported for this molecule. Item: CC1(C)O[C@@H]2CC3C4C[C@H](F)C5=CC(=O)C=CC5(C)C4C(O)CC3(C)[C@]2(C(=O)CO)O1 (some centres undefined)
0 (no)

Write down the call the test reported for this molecule. Item: CC(=O)O[C@@H]1CC2C(C)(C)C(=O)CC[C@]2(C)C2CC[C@@]3(C)[C@H](c4ccoc4)OC(=O)C4OC43[C@@]21C (some centres undefined)
0 (no)

Write down the call the test reported for this molecule. Item: Cc1cc(=O)c2c(O)c3c(cc2o1)OCC(C)CC3 (centres undefined)
1 (yes)

Write down the call the test reported for this molecule. Item: CC(=O)CC(c1ccccc1)c1c(O)c2ccccc2oc1=O (centres undefined)
0 (no)
